- Experiment notes: Stability in mouse liver microsomes assessed as intrinsic clearance measured per mg protein
Given measured CLH, output 1 if it is greater than or equal to 40 mL/min and -1 if not.

Below are worked cases with known answers.
1) Cc1cc(-c2ccc3ncn(Cc4ccccc4)c3c2)cn(C)c1=O :: -1
2) CCS(=O)(=O)NCc1cc(-c2cc(C)c(=O)n(C)c2)cc2c1[nH]c(=O)n2Cc1ccccc1 :: 1
3) CCS(=O)(=O)NCc1cc(-c2cc(C)c(=O)n(C)c2)cc2c1n(C)c(=O)n2Cc1ccccc1 :: 1
4) CCS(=O)(=O)Cc1cc(-c2cc(C)c(=O)n(C)c2)cc2c1[nH]c(=O)n2Cc1ccccc1 :: -1
5) Cc1cc(-c2ccc3c(c2)n(Cc2ccccc2)c(=O)n3CC(C)C)cn(C)c1=O :: 1
6) CCS(=O)(=O)Cc1cc(-c2cc(C)c(=O)n(C)c2)cc2c1n(C)c(=O)n2Cc1ccccc1 :: -1
7) Cc1cc(-c2ccc3c(c2)n(Cc2ccccc2)c(=O)n3C)cn(C)c1=O :: -1
8) Cc1cc(-c2cc3c4c(c2)n(Cc2ccccc2)c(=O)n4CCO3)cn(C)c1=O :: -1

Next up:
// query Check this molecule for CLH at or above 40 mL/min: "Cc1cc(-c2ccc3c(c2)n(Cc2ccccc2)c(=O)n3C(C)C)cn(C)c1=O"
// result -1

---

- Experiment notes: in vivo
- Condition notes: Slc:ICR, mouse, po, 1 mg/kg
Catalogue of Cmax values
Your answer is read as ng/mL, so omit the unit and give the number.

1. Cc1cc(-c2cc3c4c(c2)n(Cc2ccccc2)c(=O)n4CCO3)cn(C)c1=O :: 299

Could you now look at the following compound, please?
// query Which Cmax value belongs to "Cc1cc(-c2ccc3[nH]c(=O)n(Cc4ccccc4)c3c2)cn(C)c1=O" ?
// result 37

---

Catalogue of IC50 values
- Tgt: Bromodomain-containing protein 4 (Homo sapiens, UniProt O60885)
- Experiment notes: Displacement of Biotin-tagged [Lys(5,8,12,16)Ac]H4(1 to 21) peptide from GST-tagged BRD4-BD1 (unknown origin) incubated for 3 hrs by HTRF based TR-FRET assay
Your answer is read as nM, so omit the unit and give the number.

// query Which IC50 value belongs to "Cc1cc(-c2ccc3c(c2)n(Cc2ccccc2)c(=O)n3C)cn(C)c1=O" ?
// result 50

// query Which IC50 value belongs to "CCS(=O)(=O)NCc1cc(-c2cc(C)c(=O)n(C)c2)cc2c1[nH]c(=O)n2Cc1ccccc1" ?
// result 12

---

- Experiment notes: Apparent permeability of the compound across apical side to basolateral side in human Caco-2 cells incubated for 2 hrs by LC-MS/MS analysis
Test readout: Papp A→B at 2 h
Just the number plus its unit, please.

Worked cases, Papp A→B at 2 h given:
1) Cc1cc(-c2cc3c4c(c2)n(Cc2ccccc2)c(=O)n4CCO3)cn(C)c1=O :: 12 ×10⁻⁶ cm/s
2) CCS(=O)(=O)Nc1cc(-c2cc(C)c(=O)n(C)c2)cc2c1[nH]c(=O)n2Cc1ccccc1 :: 0.05 ×10⁻⁶ cm/s
3) Cc1cc(-c2ccc3c(c2)n(Cc2ccccc2)c(=O)n3C(C)C)cn(C)c1=O :: 14 ×10⁻⁶ cm/s
4) Cc1cc(-c2ccc3c(c2)n(Cc2ccccc2)c(=O)n3C)cn(C)c1=O :: 21 ×10⁻⁶ cm/s

Could you now look at the following compound, please?
// query Which Papp A→B at 2 h value belongs to "Cc1cc(-c2ccc3[nH]c(=O)n(Cc4ccccc4)c3c2)cn(C)c1=O" ?
// result 5.9 ×10⁻⁶ cm/s

The reported numbers originate from ChEMBL document CHEMBL5370578.
